Recorded EC50 values for a group of compounds are listed next.
- Test system: Leishmania donovani axenic amastigote parasites
- assay_comment: Leishmania donovani axenic amastigote proliferation assay (Cell TiterGlo luminescence, 2 day incubation)
- Assay type: cell-based
- applied_conditions: Leishmania donovani, L. donovani axenic amastigotes; read-out: L. donovani amastigotes EC50
measure_name: EC50

* CC(C)Nc1ccc(F)c(-c2cn3cc(NC(=O)OC(C)C)cnc3n2)c1 [Compound 523] | > 25 µM
* CN(C(=O)N1CCCC1)c1ccc(F)c(-c2cn3cc(N)cnc3n2)c1 [Compound 558] | > 25 µM
* CC(C)OC(=O)Nc1cnc2nc(-c3cc(-n4cn[nH]c4=O)ccc3Cl)cn2c1 [Compound 535] | > 25 µM

----------
- Test system: L. donovani HU3 strain in mouse peritoneal macrophages
- assay_comment: Assay for proliferation of Leishmania parasites in infected mouse peritoneal macrophages (SybrGreen staining, high-content imaging, 5 days)
- Type: cell-based, Leishmania donovani
- applied_conditions: Leishmania donovani, Peritoneal macrophage, L. donovani in mouse peritoneal macrophages, inhibition of proliferation; read-out: L. donovani Macrophage EC50
pEC50: −log10 of the molar value.
measure_name: pEC50

• CC(C)OC(=O)Nc1cnc2nc(-c3cc(NC(=O)N4CC[C@H](F)C4)ccc3F)cn2c1 = < 4.30
• CC(C)OC(=O)Nc1cnc2nc(-c3cc(NC(=O)N(C)c4nccn4C)ccc3Cl)cn2c1 = < 4.30
• Cc1nc(C)c(C(=O)Nc2ccc(F)c(-c3cn4cc(NC(=O)C5CCC(=O)O5)cnc4n3)c2)o1 (centres unmarked) = < 4.30
• Cc1nc(C)c(C(=O)Nc2ccc(F)c(-c3cn4cc(NC(=O)C5CNCCCO5)cnc4n3)c2)o1 (centres unmarked) = < 4.30
• Cc1nc(C)c(C(=O)Nc2ccc(F)c(-c3cn4cc(NC(=O)c5ccc(F)cn5)cnc4n3)c2)o1 = < 4.30
• CC(C)OC(=O)Nc1cnc2nc(-c3cc(NC(=O)N4CCC(=O)C4)ccc3Cl)cn2c1 = < 4.43
• Cn1ccnc1C(=O)Nc1cnc2nc(-c3cc(NC(=O)N4CCCC4)ccc3F)cn2c1 = < 4.30
• CC(C)OC(=O)Nc1cnc2nc(-c3cc(NC(=O)NN)ccc3Cl)cn2c1 = < 4.47

----------
Recorded pEC50 values for a group of compounds are listed next.
- System: L. donovani HU3 strain in mouse peritoneal macrophages
- assay_comment: Assay for proliferation of Leishmania parasites in infected mouse peritoneal macrophages (SybrGreen staining, high-content imaging, 5 days)
- Type: cell-based, Leishmania donovani
- applied_conditions: Leishmania donovani, Peritoneal macrophage, L. donovani in mouse peritoneal macrophages, inhibition of proliferation; read-out: L. donovani Macrophage EC50
pEC50: −log10 of the molar value.
measure_name: pEC50

• O=C(Nc1cnc2nc(-c3cc(NC(=O)N4CCCC4)ccc3F)cn2c1)[C@@H]1CNCCO1 [Compound 130] = 4.57
• Cc1nc(C)c(C(=O)Nc2ccc(F)c(-c3cn4cc(-c5ccc(OCCN6CCOCC6)cc5)cnc4n3)c2)o1 [Compound 359] = 5.31
• CC(C)OC(=O)Nc1cnc2nc(-c3cc(NC(=O)c4cocn4)ccc3Cl)cn2c1 [Compound 43] = 5.41
• Cc1nc(C)c(C(=O)Nc2ccc(F)c(-c3cn4cc(NC(=O)OCC(C)C)cnc4n3)c2)o1 [Compound 308] = 6.47
• O=C(Nc1cnc2nc(-c3cc(NC(=O)N4CCCC4)ccc3F)cn2c1)[C@@H]1CCCO1 [Compound 135] = 5.51
